Please respond with reported Kb for every item in the list.
- Organism: Mus musculus
- methodSummary: Antagonistic functional bioactivity against delta-receptor from mouse vas deferens(MVD).
- assaySetup: read-out: pA2 (converted)
Where a SMILES comes first, the peptide text is derived from it. [ ]: non-standard residue; d: D form. The star is where a group is joined. Dmt = Cc1cc(O)cc(C)c1C[C@H](N)C(=O)O; Tic = O=C(O)[C@@H]1Cc2ccccc2CN1; NHtBu = CC(C)(C)N*
Value and unit, in that order.

Cc1cc(O)cc(C)c1C[C@H](N)C(=O)N1Cc2ccccc2C[C@H]1CC(=O)O: 1.58 nM
Cc1cc(O)cc(C)c1C[C@H](N)C(=O)N1Cc2ccccc2C[C@H]1C(=O)N[C@@H](C)C(=O)NC12C[C@H]3C[C@@H](C1)C[C@@H](C2)C3: 0.513 nM
Cc1cc(O)cc(C)c1C[C@@H](C(=O)N1Cc2ccccc2C[C@H]1C(=O)NC(C)(C)C)N(C)C: 14.1 nM
CNC(=O)[C@@H]1Cc2ccccc2CN1C(=O)[C@H](Cc1c(C)cc(O)cc1C)N(C)C: 0.407 nM
Cc1cc(O)cc(C)c1C[C@@H](C(=O)N1Cc2ccccc2C[C@@H]1C(=O)NC12C[C@H]3C[C@@H](C1)C[C@@H](C2)C3)N(C)C: 123 nM
Cc1cc(O)cc(C)c1C[C@H](N)C(=O)N1Cc2ccccc2C[C@H]1C(=O)NC(C)(C)C (H-[Dmt]-[Tic]-NHtBu): 5.75 nM

Now consider the entry below.
query: Returns the measured Kb for the input compound. Input: Cc1cc(O)cc(C)c1C[C@H](N)C(=O)N1Cc2ccccc2C[C@H]1C(=O)N[C@@H](C)C(=O)NC(C)(C)C (H-[Dmt]-[Tic]-Ala-NHtBu)
result: 0.692 nM
